- SYSTEM TESTED: cAMP-dependent protein kinase catalytic subunit PRKX (Homo sapiens) (UniProt P51817)
- Sequence (P51817 whole entry): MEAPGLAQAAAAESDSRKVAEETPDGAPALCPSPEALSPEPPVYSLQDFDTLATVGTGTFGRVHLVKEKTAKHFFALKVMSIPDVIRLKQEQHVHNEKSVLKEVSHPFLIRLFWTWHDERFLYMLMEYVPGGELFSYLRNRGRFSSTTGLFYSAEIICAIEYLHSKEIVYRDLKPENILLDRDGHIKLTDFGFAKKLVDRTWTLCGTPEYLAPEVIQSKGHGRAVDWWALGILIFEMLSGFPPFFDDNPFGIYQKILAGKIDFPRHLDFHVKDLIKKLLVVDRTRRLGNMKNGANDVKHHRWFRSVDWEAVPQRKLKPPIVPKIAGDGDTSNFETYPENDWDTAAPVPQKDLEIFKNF
- CONDITION NOTES: at 1 µM
Each entry below carries its recorded residual activity.
Your answer should be a plain number; it is taken to be in %.

Recorded residual activity, per entry:
O=C(CCCc1ccc(-c2ccccc2F)cc1)Nc1ccc(O)cc1 :: 100
O=C(NC(NC(=S)Nc1ccc(F)c([N+](=O)[O-])c1)C(Cl)(Cl)Cl)C(c1ccccc1)c1ccccc1 (stereo unspecified) :: 82

residual activity lookup needed for CCCCc1c(-c2ccc(OC)cc2)[nH]c2nccnc12 , thanks.
84

Input CSc1nc(-c2ccc(F)cc2)c(-c2ccnc(NC(C)c3ccccc3)c2)[nH]1 (stereo unspecified)
87

Record: COc1ccc(COc2ccc(Cc3cnc(N)nc3N)cc2OC)cc1
98

Then what about the compound Cn1c2ccccc2c2c3c(c4c5ccccc5n(CCC#N)c4c21)CNC3=O ?
19

Param item: COc1cc2ncnc(Nc3cccc(Cl)c3)c2cc1OC
122

Also need COc1ccc(CNC(=O)Nc2ncc([N+](=O)[O-])s2)cc1 , thanks.
55

Also need O=c1cc(N2CCNCC2)oc2c(-c3ccccc3)cccc12 , thanks.
93

Can you check COc1cc2nccc(Oc3ccc(NC(=O)Nc4cc(C)on4)c(Cl)c3)c2cc1OC next?
97

Entry to check: CCCCc1c(-c2ccc(O)cc2)[nH]c2nccnc12
93

----------
- SYSTEM TESTED: Rho-associated protein kinase 1 (Homo sapiens) (UniProt Q13464)
- Sequence (Q13464 2-1354 limits assumed): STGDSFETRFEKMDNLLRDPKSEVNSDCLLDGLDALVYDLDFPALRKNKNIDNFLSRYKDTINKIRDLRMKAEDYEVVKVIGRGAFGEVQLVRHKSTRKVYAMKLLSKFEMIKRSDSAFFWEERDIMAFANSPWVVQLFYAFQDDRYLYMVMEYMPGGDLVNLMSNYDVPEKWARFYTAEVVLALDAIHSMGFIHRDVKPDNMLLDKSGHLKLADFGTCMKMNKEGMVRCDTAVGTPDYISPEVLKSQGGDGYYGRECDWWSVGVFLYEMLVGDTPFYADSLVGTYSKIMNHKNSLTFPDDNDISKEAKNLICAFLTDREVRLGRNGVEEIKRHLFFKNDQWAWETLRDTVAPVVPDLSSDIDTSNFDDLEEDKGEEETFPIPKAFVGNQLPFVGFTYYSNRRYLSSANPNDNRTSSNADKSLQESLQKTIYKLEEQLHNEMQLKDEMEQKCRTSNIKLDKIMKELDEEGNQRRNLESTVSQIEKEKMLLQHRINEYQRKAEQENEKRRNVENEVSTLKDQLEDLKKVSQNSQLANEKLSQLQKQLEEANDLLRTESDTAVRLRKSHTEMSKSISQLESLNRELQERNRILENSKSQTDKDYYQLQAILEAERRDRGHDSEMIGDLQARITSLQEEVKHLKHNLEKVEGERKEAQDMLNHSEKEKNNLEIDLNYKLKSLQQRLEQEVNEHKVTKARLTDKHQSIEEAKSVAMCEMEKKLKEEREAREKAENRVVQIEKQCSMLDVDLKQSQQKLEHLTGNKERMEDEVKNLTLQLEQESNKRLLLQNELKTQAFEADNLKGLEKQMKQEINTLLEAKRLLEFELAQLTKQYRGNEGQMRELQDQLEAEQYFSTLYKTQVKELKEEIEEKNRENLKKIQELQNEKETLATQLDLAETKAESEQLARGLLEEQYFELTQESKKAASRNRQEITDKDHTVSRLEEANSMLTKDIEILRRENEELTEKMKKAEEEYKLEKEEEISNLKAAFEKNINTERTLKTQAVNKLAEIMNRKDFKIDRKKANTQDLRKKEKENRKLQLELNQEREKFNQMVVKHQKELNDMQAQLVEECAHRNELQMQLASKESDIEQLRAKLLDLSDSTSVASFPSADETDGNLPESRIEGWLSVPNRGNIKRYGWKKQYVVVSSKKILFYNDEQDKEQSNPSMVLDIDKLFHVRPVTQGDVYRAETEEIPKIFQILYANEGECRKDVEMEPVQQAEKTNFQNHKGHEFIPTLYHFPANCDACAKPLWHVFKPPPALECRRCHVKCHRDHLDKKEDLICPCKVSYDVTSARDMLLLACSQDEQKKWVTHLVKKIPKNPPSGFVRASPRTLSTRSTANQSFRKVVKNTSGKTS
- CONDITION NOTES: at 1 µM
VALUE TYPE: residual activity (%)
Unit % implied. Number only.

// worked examples, residual activity included
O=C1NC(=O)C(c2cn(CCCn3ccnc3)c3ccccc23)=C1Nc1ccccc1 :: 120
CN(C)S(=O)(=O)c1ccc2c(c1)/C(=C/c1cc3c([nH]1)CCCC3)C(=O)N2 :: 132

Requested read-out: residual activity. Entry: Nc1ncnc2[nH]nc(Nc3ccc(F)cc3)c12
128

Further, for Nc1ncnc2c1c(-c1ccc(Oc3ccccc3)cc1)cn2C1CCCC1 ?
116

Follow-up item: O=C(CCCc1ccc(-c2ccccc2F)cc1)Nc1ccc(O)cc1
107

Now consider Nc1nc(Nc2ccc(S(N)(=O)=O)cc2)nn1C(=O)c1c(F)cccc1F and answer again.
65

Query CCCCc1c(-c2ccc(OC)cc2)[nH]c2nccnc12 next
117

Same for Fc1ccc(-c2nc3n(c2-c2ccncc2)CCS3)cc1
123

Then what about the compound O=C(Nc1nc2ccccc2n1CCN1CCOCC1)c1cccc([N+](=O)[O-])c1 ?
109

----------
- SYSTEM TESTED: Serine/threonine-protein kinase D1 (Homo sapiens)
- CONDITION NOTES: at 10 µM
VALUE TYPE: residual activity (%)
Hi! Could you send only the number? It should be in %, unit omitted.

These recorded examples may help you get a feel for the data.
N#Cc1c(NC(=O)c2cccc3ccccc23)sc2c1CCCC2 :: 83
COc1cc2nccc(Oc3ccc(NC(=S)NC(=O)c4ccccc4C)cc3)c2cc1OC :: 89
Nc1ncnc2[nH]nc(Nc3ccc(F)cc3)c12 :: 64
O=S(=O)(NCCNC/C=C/c1ccc(Br)cc1)c1cccc2cnccc12 :: 20

Item under review: NCCNc1ncc(C(N)=O)c(Nc2cccc(C(F)(F)F)c2)n1 . Reported residual activity?
8

Then what about the molecule O=C(NC(NC(=S)Nc1ccc(F)c([N+](=O)[O-])c1)C(Cl)(Cl)Cl)C(c1ccccc1)c1ccccc1 (stereo unspecified) ?
88

O=c1cc(N2CCNCC2)oc2c(-c3ccccc3)cccc12 ?
90

----------
# residual activity listing for each entry below
- SYSTEM TESTED: Serine/threonine-protein kinase WNK3 (Homo sapiens) (UniProt Q9BYP7);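 also: remaining kinase activity expressed versus control, assayed in 8 mM MOPS buffer pH 7.0 with 0.2 mM EDTA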
- Sequence (Q9BYP7 whole entry): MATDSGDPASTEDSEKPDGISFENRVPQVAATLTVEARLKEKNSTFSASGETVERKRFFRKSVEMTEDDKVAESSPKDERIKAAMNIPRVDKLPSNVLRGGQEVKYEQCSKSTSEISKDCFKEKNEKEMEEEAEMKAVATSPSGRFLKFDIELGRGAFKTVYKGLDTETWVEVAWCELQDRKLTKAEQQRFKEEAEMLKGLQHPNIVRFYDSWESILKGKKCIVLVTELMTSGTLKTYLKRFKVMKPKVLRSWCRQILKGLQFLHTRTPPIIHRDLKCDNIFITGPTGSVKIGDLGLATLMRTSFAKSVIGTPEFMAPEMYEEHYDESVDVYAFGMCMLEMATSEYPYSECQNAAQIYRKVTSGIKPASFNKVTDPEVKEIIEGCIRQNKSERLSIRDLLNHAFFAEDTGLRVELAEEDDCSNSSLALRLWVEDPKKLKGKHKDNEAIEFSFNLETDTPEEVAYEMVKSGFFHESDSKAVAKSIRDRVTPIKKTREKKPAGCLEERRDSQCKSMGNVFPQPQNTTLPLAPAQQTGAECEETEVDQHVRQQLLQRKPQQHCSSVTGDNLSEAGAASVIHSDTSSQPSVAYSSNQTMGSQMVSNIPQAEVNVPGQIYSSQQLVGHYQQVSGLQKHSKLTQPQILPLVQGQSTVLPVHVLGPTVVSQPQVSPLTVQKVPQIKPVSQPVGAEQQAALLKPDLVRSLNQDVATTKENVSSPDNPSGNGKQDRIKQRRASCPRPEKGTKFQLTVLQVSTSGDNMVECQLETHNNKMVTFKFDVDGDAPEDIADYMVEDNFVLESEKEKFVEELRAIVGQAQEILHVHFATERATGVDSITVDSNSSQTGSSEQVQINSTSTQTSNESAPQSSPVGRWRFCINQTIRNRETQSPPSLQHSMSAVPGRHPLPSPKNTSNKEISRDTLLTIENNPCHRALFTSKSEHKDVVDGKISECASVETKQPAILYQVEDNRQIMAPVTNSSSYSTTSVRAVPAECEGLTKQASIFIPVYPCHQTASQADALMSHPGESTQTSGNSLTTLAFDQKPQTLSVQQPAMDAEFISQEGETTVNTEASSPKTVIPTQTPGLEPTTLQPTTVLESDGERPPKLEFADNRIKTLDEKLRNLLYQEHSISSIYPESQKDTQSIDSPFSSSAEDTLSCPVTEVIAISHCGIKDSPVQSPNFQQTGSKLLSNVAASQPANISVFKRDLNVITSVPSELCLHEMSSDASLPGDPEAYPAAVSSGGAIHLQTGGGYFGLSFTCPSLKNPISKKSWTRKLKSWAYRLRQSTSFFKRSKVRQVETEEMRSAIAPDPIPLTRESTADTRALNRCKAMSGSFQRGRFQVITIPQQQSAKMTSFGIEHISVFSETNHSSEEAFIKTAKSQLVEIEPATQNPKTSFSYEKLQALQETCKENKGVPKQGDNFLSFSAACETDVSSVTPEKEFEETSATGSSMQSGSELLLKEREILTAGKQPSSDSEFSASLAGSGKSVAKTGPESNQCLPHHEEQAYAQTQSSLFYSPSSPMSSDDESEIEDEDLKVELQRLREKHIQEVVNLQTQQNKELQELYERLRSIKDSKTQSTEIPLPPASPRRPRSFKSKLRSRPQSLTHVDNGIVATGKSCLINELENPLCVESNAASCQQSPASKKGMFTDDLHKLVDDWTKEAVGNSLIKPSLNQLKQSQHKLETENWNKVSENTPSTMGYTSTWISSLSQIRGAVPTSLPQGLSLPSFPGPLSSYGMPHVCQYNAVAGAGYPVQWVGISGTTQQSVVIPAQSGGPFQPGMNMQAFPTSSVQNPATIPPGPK
- CONDITION NOTES: at 1 µM
- Description: Millipore: Percentage of residual kinase activity of WNK3 at 1uM relative to control. Control inhibitor: Phosphoric acid* at 0.3uM. Buffer: 8 mM MOPS pH 7.0, 0.2 mM EDTA
Form entry: value (%) — number only.

The examples below pair each entry with its known result.
COc1ccc2c(c1)c(C1=C(c3c[nH]c4ccccc34)C(=O)NC1=O)cn2CCCN(C)C :: 105
O=C(O)/C=C/c1cc(Br)c(Br)c(Br)c1Br :: 108
CSc1nc(-c2ccc(F)cc2)c(-c2ccnc(NC(C)c3ccccc3)c2)[nH]1 (stereo unspecified) :: 96
O=C(CCCc1ccc(-c2ccccc2F)cc1)Nc1ccc(O)cc1 :: 94
Nc1ncnc2c1cnn2-c1ccccc1 :: 99

Given the molecule O=C1Cc2c([nH]c3ccc(Br)cc23)-c2ccccc2N1 , what is its reported residual activity?
88

----------
- SYSTEM TESTED: Serine/threonine-protein kinase PAK 6 (Homo sapiens) (UniProt Q9NQU5)
- Sequence (Q9NQU5 whole entry, looked up): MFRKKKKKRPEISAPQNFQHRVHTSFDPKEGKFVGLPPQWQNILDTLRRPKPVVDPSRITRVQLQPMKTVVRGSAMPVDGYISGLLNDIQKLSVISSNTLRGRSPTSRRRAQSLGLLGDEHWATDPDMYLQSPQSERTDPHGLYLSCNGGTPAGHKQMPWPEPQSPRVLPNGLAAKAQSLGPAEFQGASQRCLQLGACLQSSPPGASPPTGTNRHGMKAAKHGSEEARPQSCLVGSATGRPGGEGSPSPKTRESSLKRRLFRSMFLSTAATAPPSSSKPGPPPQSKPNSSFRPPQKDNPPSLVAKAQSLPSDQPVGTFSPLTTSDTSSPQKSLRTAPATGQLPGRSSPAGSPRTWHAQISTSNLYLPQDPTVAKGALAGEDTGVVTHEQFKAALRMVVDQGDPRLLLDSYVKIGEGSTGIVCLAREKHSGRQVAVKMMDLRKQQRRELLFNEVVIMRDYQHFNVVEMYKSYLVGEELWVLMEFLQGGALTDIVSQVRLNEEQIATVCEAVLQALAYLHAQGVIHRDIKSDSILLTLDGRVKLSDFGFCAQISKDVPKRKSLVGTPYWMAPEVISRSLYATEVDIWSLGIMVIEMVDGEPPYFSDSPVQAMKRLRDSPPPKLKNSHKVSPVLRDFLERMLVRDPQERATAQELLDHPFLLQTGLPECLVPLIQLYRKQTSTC
- CONDITION NOTES: at 1 µM
VALUE TYPE: residual activity (%)
Field format: number, assumed %, no unit text.

Recorded results for 8 compounds are shown here.
CC(C)[C@H](CO)Nc1nc(Nc2cc(N)cc(Cl)c2)c2ncn(C(C)C)c2n1 :: 26
CN([C@@H](Cc1ccc(OS(=O)(=O)c2cccc3cnccc23)cc1)C(=O)N1CCN(c2ccccc2)CC1)S(=O)(=O)c1cccc2cnccc12 :: 84
CCCCc1c(-c2ccc(OC)cc2)[nH]c2nccnc12 :: 92
Oc1cccc(-c2nc(N3CCOCC3)c3oc4ncccc4c3n2)c1 :: 100
Cn1sc(=O)n(Cc2ccccc2)c1=O :: 96
CCCC(=O)Oc1ccc2[nH]c(C(=O)c3cc4ccccc4[nH]3)cc2c1 :: 108
Nc1ncnc2c1c(-c1ccc(Oc3ccccc3)cc1)cn2C1CCCC1 :: 91
Cn1c2ccccc2c2c3c(c4c5ccccc5n(CCC#N)c4c21)CNC3=O :: 4

residual activity of Nc1nc(Nc2ccc(S(N)(=O)=O)cc2)nn1C(=O)c1c(F)cccc1F on Serine/threonine-protein kinase PAK 6 (Homo sapiens) (UniProt Q9NQU5)?
79

Then this compound: CCOC(=O)c1c(C)[nH]c(/C=C2\C(=O)Nc3ccccc32)c1C
91

----------
- SYSTEM TESTED: Death-associated protein kinase 2 (Homo sapiens)
- CONDITION NOTES: at 10 µM
VALUE TYPE: residual activity (%)
Numeric answer only, unit % assumed.

Field: example entries. Status: answers known.
COc1ccc2c(c1)c(C1=C(c3c[nH]c4ccccc34)C(=O)NC1=O)cn2CCCN(C)C :: 32
O=C(c1cc2cc(O)ccc2[nH]1)c1cc2cc(O)ccc2[nH]1 :: 73
CSc1nc(-c2ccc(F)cc2)c(-c2ccnc(NC(C)c3ccccc3)c2)[nH]1 (centres undefined) :: 95

Entry Nc1nc(Nc2ccc(S(N)(=O)=O)cc2)nn1C(=O)c1c(F)cccc1F has what residual activity?
77

----------
- SYSTEM TESTED: Inhibitor of nuclear factor kappa-B kinase subunit alpha (Homo sapiens) (UniProt O15111)
- Sequence (whole entry): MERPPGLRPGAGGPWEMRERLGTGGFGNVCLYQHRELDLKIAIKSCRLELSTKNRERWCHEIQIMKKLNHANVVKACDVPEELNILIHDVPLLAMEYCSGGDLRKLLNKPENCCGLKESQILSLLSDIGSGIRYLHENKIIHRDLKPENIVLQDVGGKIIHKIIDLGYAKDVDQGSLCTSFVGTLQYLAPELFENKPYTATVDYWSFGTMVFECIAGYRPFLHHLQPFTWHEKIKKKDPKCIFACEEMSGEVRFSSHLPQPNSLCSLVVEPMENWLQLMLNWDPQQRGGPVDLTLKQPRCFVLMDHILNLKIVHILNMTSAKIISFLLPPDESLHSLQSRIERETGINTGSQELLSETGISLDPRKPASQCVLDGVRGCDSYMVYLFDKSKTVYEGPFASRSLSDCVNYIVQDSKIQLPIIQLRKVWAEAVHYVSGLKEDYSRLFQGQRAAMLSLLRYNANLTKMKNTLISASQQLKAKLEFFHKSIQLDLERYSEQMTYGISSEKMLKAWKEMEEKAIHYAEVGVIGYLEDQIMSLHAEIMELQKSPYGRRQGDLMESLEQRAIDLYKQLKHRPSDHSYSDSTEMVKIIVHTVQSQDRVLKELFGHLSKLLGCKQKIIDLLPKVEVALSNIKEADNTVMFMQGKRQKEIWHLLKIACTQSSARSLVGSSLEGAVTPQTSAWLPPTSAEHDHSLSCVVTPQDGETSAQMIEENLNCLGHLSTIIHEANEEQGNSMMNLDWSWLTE
- CONDITION NOTES: at 10 µM
VALUE TYPE: residual activity (%)
Give just the numeric value; % need not be written.

Take a look at these entries with their results.
O=C1Nc2ccc(Cl)cc2/C1=C/c1cc(Cl)c(O)c(Cl)c1 :: 88
CC(C)(C)n1nc(Cc2cccc3ccccc23)c2c(N)ncnc21 :: 128
CSc1nc(-c2ccc(F)cc2)c(-c2ccnc(NC(C)c3ccccc3)c2)[nH]1 (stereo not given) :: 95
COc1cc2c(cc1OC)-c1n[nH]c(Nc3cccc(F)c3)c1C2 :: 112
COc1ccc(CNC(=O)Nc2ncc([N+](=O)[O-])s2)cc1 :: 113
CCOC(=O)c1c(C)[nH]c(/C=C2\C(=O)Nc3ccccc32)c1C :: 88
COc1ccc2c(c1)c(C1=C(c3c[nH]c4ccccc34)C(=O)NC1=O)cn2CCCN(C)C :: 64
O=C1NC(=O)c2c1c1c3ccccc3[nH]c1n1cncc21 :: 55

What measured residual activity goes with N#C/C(=C1/Nc2ccccc2S1)c1ccnc(NCCc2cccnc2)n1 ?
71

Same question, Nc1n[nH]c2nc3ccccc3nc12 this time
69

Same again, this time with Nc1ncnc2c1c(-c1ccc(Oc3ccccc3)cc1)cn2C1CCCC1
103

Also check Cn1sc(=O)n(Cc2ccccc2)c1=O
93

Next record, please: c1ccc(-c2cnc(Nc3ccc(OCCN4CCCC4)cc3)s2)cc1
66

Likewise for O=C(O)/C=C/c1cc(Br)c(Br)c(Br)c1Br ?
35

Again, but for Cc1cc(C)c(/C=C2\C(=O)Nc3ccccc32)[nH]1
73

Reference for the values: ChEMBL document CHEMBL2218924
